# tested-on: Dopamine beta-hydroxylase (Bos taurus, UniProt P15101)
reported-metric: IC50

Exercise: Please provide the recorded IC50 for S=c1[nH]ccn1Cc1ccc(Cl)cc1 , tested on Dopamine beta-hydroxylase (Bos taurus, UniProt P15101).
Key: 96 µM

====

# tested-on: Dopamine beta-hydroxylase (Bos taurus)
# Sequence (P15101 whole entry): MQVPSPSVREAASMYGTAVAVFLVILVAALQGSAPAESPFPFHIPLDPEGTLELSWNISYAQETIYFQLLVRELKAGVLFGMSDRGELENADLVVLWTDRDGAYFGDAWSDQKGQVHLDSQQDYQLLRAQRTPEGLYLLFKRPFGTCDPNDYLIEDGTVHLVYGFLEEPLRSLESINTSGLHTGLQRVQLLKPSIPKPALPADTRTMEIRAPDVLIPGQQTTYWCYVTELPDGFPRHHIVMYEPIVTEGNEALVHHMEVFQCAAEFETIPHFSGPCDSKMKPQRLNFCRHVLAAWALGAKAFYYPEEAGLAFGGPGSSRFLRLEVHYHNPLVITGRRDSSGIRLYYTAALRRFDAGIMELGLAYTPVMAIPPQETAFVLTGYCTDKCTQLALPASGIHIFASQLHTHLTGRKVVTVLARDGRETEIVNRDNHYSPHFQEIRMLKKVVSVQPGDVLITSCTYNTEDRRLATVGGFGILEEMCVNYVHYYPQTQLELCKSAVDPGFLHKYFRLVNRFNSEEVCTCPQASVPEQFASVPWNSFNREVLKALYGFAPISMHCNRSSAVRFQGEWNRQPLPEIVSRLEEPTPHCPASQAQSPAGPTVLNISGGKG
# assay: Inhibitory Concentration against bovine Dopamine beta hydroxylase (DBH); Range is between (23-41).
reported-metric: IC50 (µM)
Provide the reading as a plain figure in µM.

Exercise: Looking for the measured IC50 of O=[N+]([O-])c1cc(Cn2cc[nH]c2=S)ccc1O , can you help?
Key: 31

====

# tested-on: UniProt P15101
# Sequence (P15101 whole entry): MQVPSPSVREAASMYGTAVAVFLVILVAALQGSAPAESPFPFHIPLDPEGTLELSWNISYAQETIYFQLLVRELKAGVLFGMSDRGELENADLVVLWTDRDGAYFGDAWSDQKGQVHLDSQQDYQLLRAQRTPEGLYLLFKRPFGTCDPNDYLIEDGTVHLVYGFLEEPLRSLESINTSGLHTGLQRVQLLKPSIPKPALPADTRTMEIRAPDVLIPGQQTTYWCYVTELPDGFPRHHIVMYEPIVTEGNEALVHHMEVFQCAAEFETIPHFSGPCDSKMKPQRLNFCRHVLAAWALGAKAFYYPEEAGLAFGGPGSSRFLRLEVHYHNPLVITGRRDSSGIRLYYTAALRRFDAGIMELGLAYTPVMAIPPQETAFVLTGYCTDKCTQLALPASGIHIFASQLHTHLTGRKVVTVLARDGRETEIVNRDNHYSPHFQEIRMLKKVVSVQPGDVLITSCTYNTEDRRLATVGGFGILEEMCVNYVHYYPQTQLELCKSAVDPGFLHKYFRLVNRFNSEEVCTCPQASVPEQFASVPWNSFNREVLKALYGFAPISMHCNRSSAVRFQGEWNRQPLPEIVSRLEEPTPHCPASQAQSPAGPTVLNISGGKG
reported-metric: pIC50
Entry type: numeric. Quantity: pIC50, the -log10 of concentration in molar units.

Exercise: Looking for the measured pIC50 of S=c1[nH]ccn1Cc1c(Cl)cc(Cl)cc1Cl , can you help?
Key: 3.99

Measured values drawn from ChEMBL document CHEMBL1123691 for this set.
